Numbers sourced from patent US20160152728A1.

# tested on: EGFRvIII-Fc fusion antigen (human, UniProt P00533 25-645)
# protocol text: SPR Biacore T200, EGFRvIII-Fc captured via anti-hu Fc, scFv analyte, 1:1 model;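 also: Multi-cycle kinetics on a CM5 chip in HBS-P+ running buffer, 180 s scFv association then 540 s dissociation, with blank flow cell signals subtracted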
Readings of kON improvement factor vs parental scFv Li3G30 for the listed binders
readout label: kON improvement factor vs parental scFv Li3G30 (fold)

>  <binder>
scFv 474 (scFv, V domains shown, One-chain scFv, His-tagged) VH: EVQLVQSGAEVKKPGESLKISCKGSGYSFSHYWIGWVRQMPGKGLEWMGITYPGDVDTRYDPSFQGQVTISADKSISTAYLQWSSLKASDTAMYYCARLGSSWTNDAFDIWGQGTLVTVSS VL: SYELTQPPSVSVSPGQTARITCSGDALPKTYAYWYQQKPGQAPVLVIYKDTERPSGIPERFSGSSSGTTVTLTISGVQAEDEADYYCQSADSSGTYLVFGGGTKLTVL

>  <quantitative result>
20.6

$$$$
>  <binder>
scFv 470 (scFv, V domains shown, One-chain scFv, His-tagged) VH: EVQLVQSGAEVKKPGESLKISCKGSGYSFNSYWIGWVRQMPGKGLEWMGIIYPGDSDTRYSPSFQGQVTISADKSISTAYLQWSSLKASDTAMYYCARLGSSWTNDAFDIWGQGTLVTVSS VL: SYELTQPPSVSVSPGQTARITCSGDALDKQYAYWYQQKPGQAPVLVIYKDSERPSGIPERFSGSSSGTTVTLTISGVQAEDEADYYCQSVDSSETYVVFGGGTKLTVL

>  <quantitative result>
2.7

$$$$
>  <binder>
scFv 471 (scFv, V domains shown, One-chain scFv, His-tagged) VH: EVQLVQSGAEVKKPGESLKISCKGSGYSFNSYWIGWVRQMPGKGLEWMGIIYPGDSANRYSPSFQGQVTISADKSISTAYLQWSSLKASDTAMYYCARLGSSWTNDAFDIWGQGTLVTVSS VL: SYELTQPPSVSVSPGQTARITCSGDYLPKQYAYWYQQKPGQAPVLVIYKDTERPSGIPERFSGSSSGTTVTLTISGVQAEDEADYYCQSVDSSHPSVVFGGGTKLTVL

>  <quantitative result>
6.9

$$$$
>  <binder>
scFv 479 (scFv, V domains shown, One-chain scFv, His-tagged) VH: EVQLVQSGAEVKKPGESLKISCKGSGYDFSSYWIGWVRQMPGKGLEWMGIIYPGDSDTIYSPSFQGQVTISADKSISTAYLQWSSLKASDTAMYYCARLGSSWTNDAFDIWGQGTLVTVSS VL: SYELTQPPSVSVSPGQTARITCSGAALPEQYAYWYQQKPGQAPVLVIYKDSERPSGIPERFSGSSSGTTVTLTISGVQAEDEADYYCQSVDSSGTFYVFGGGTKLTVL

>  <quantitative result>
2.4

$$$$
